ASSAY_TEXT: Square-wave and cyclic voltammetry on glassy carbon electrode
Format: physicochemical
RUN_PARAMETERS: SWV, 0.5 mol/L NaClO4, pH 9, vs Ag/AgCl
Quick reference: Oxidation peak P2 potential (triazole) of the listed items.

COMPOUND: CC([c-]1cccc1)n1cc(Cn2cnc3ncnc(Cl)c32)nn1.[Fe+2].c1cc[cH-]c1 (centres unmarked) [Compound 15b]
Oxidation peak P2 potential (triazole): ~ 1.1 V
//
COMPOUND: Clc1ncnc2c1ncn2Cc1cn(C[c-]2cccc2)nn1.[Fe+2].c1cc[cH-]c1 [Compound 13a]
Oxidation peak P2 potential (triazole): ~ 1.1 V
//
COMPOUND: Clc1ncnc2c1ccn2Cc1cn(-[c-]2cccc2)nn1.[Fe+2].c1cc[cH-]c1 [Compound 11c]
Oxidation peak P2 potential (triazole): ~ 1.1 V

###

System: MDCKII-hMDR1 cells
ASSAY_TEXT: Permeability and P-gp substrate assessment in MDCKII-hMDR1 cell monolayer
Assay type: in vitro ADME, canine
RUN_PARAMETERS: without P-gp inhibitor, 10 µM, 60 min
Quick reference: Papp (AB) of the listed items.
READOUT_LABEL: Papp (AB) (×10⁻⁶ cm/s)

COMPOUND: Clc1ncnc2c1ccn2Cc1cn(C[c-]2cccc2)nn1.[Fe+2].c1cc[cH-]c1 [Compound 11a]
UNITS_SYMBOL: ×10⁻⁶ cm/s
RESULT_VALUE: 8.4
//
COMPOUND: Clc1ncnc2ncn(Cc3cn(C[c-]4cccc4)nn3)c12.[Fe+2].c1cc[cH-]c1 [Compound 15a]
UNITS_SYMBOL: ×10⁻⁶ cm/s
RESULT_VALUE: 4.8
//
COMPOUND: CC([c-]1cccc1)n1cc(Cn2cnc3ncnc(Cl)c32)nn1.[Fe+2].c1cc[cH-]c1 (stereo not drawn) [Compound 15b]
UNITS_SYMBOL: ×10⁻⁶ cm/s
RESULT_VALUE: 3.2
//
COMPOUND: Clc1ncnc2c1ncn2Cc1cn(C[c-]2cccc2)nn1.[Fe+2].c1cc[cH-]c1 [Compound 13a]
UNITS_SYMBOL: ×10⁻⁶ cm/s
RESULT_VALUE: 8.3
//
COMPOUND: Clc1ncnc2c1ccn2Cc1cn(-[c-]2cccc2)nn1.[Fe+2].c1cc[cH-]c1 [Compound 11c]
UNITS_SYMBOL: ×10⁻⁶ cm/s
RESULT_VALUE: 5.3
//
COMPOUND: CC([c-]1cccc1)n1cc(Cn2ccc3c(Cl)ncnc32)nn1.[Fe+2].c1cc[cH-]c1 (stereo not drawn) [Compound 11b]
UNITS_SYMBOL: ×10⁻⁶ cm/s
RESULT_VALUE: 11.8

###

ASSAY_TEXT: Metabolic stability in mouse liver microsomes
Type: in vitro ADME
RUN_PARAMETERS: mouse liver microsomes, 1 µM
Quick reference: t1/2 of the listed items.

COMPOUND: Clc1ncnc2c1ccn2Cc1cn(C[c-]2cccc2)nn1.[Fe+2].c1cc[cH-]c1 [Compound 11a]
t1/2: 4.4 min
//
COMPOUND: Clc1ncnc2ncn(Cc3cn(C[c-]4cccc4)nn3)c12.[Fe+2].c1cc[cH-]c1 [Compound 15a]
t1/2: 8.8 min
//
COMPOUND: Clc1ncnc2c1ccn2Cc1cn(-[c-]2cccc2)nn1.[Fe+2].c1cc[cH-]c1 [Compound 11c]
t1/2: 1.3 min
//
COMPOUND: CC([c-]1cccc1)n1cc(Cn2cnc3ncnc(Cl)c32)nn1.[Fe+2].c1cc[cH-]c1 (centres unmarked) [Compound 15b]
t1/2: 2.9 min
//
COMPOUND: Clc1ncnc2c1ncn2Cc1cn(C[c-]2cccc2)nn1.[Fe+2].c1cc[cH-]c1 [Compound 13a]
t1/2: 5.5 min
